Recorded values, source PubChem BioAssay (NCI).

Here, each record is paired with measured TGI data.
system: OVCAR-8 ovarian; test: NCI tumour cell line growth inhibition, 48 h

These recorded examples may help you get a feel for the data.
• CC(=O)c1cccc(NC(=O)C(=O)Nn2c(N)nnc2N)c1 = > 100 µM
• C=C(CN1CCN(c2cccc(C(F)(F)F)n2)CC1)c1ccc(C(=S)Nc2ccccc2N)cc1 = > 100 µM
• COc1cccc2c1c(C1=C(c3cn(C)c4ccccc34)C(=O)NC1=O)cn2C = > 25 µM
• C1=NCCNCCNCCN=Cc2ccccc2OCc2cccc(n2)COc2ccccc21 = 84.4 µM
• O=[N+]([O-])c1c(C=Nc2ccccc2)oc(-c2ccc3c(c2)OCO3)c1-c1ccc2c(c1)OCO2 = > 100 µM

[Q] Which TGI is listed for COc1ccc(-c2cc(-c3ccc(O)cc3)nc3n[nH]c(N)c23)cc1 ?
[A] 91.6 µM

[Q] Next compound up: O=C(COc1ccc(Cl)c(Cl)c1)N(Cc1ccccc1)Cc1ccc[n+](Cc2ccc(Cl)cc2S(=O)(=O)F)c1
[A] > 100 µM

[Q] Next compound up: O=S(O)CCCSSc1ccccc1
[A] > 100 µM

[Q] Next compound up: COc1cc(N(Cc2ccc3nc(OC)c(OC)nc3c2)Cc2ccc3nc(OC)c(OC)nc3c2)cc(OC)c1OC
[A] > 50 µM

[Q] Next compound up: CCOP(=O)(OCC)[C@H]1OC(C)(C)O[C@@H]1CO
[A] > 100 µM

---

tested on: NCI-H460 lung
Your reply should match one of these outcome classes. 1 (yes) for active, 0 (no) for inactive

* C[n+]1ccc(-c2c3nc(c(-c4cc[n+](C)cc4)c4ccc([n-]4)c(-c4cc[n+](C)cc4)c4nc(c(-c5cc[n+](C)cc5)c5ccc2[n-]5)C=C4)C=C3)cc1.[I-].[Zn+2] | 0 (no)
* CCCCN(CCCC)CCCn1c(=O)c2c3ccccc3n(C)c2n2nnc(-c3ccccc3)c12 | 0 (no)
* CCCC(=O)O.CCCC(=O)O.CCCC(=O)O.CCCC(=O)O.[Rh].[Rh] | 1 (yes)
* COC(=O)/C=C/c1cn(C(C)=O)c2ccc(Br)cc12 | 0 (no)
* CCCCCCCCCCCCOC1C(C(CC(=O)N2CCN(c3cccc(C(F)(F)F)c3)CC2)NS(=O)(=O)c2cc(Cl)cc(Cl)c2)OC2OC(C)(C)OC21 (centres undefined) | 0 (no)
* O=C1c2ccccc2-c2c1c1c(O)cccc1n2-c1ccccc1 | 0 (no)
* C=C(C)[C@@H]1CC[C@]2(CO)CC[C@]3(C)[C@H](CC[C@@H]4[C@@]5(C)CCC(NCCc6ccc(O)cc6)C(C)(C)[C@@H]5CC[C@]43C)[C@@H]12 (some centres undefined) | 0 (no)
* C/C(=C\COc1c2c(cc3c1CCO3)OC1(C=C2)OC(CC/C(C)=C/COc2c3ccoc3cc3oc(=O)ccc23)C(C)(C)O1)CCC(O)C(C)(C)O (centres undefined) | 0 (no)

[Q] Recorded call for OCC1OC(n2cnc3c(Cl)nc(Cl)cc32)C(O)C1O (centres undefined) ?
[A] 0 (no)

[Q] Next compound up: C[C@H](CCCNCCCNCCCN)[C@H]1CC[C@H]2[C@@H]3[C@H](OCCCN)C[C@H]4C[C@H](OCCCN)CC[C@]4(C)[C@H]3C[C@H](OCCCN)[C@]12C
[A] 0 (no)

[Q] Next compound up: CN1CC(CNC(=O)OCc2ccccc2)CC2c3cccc4c3c(cn4C)CC21 (centres undefined)
[A] 0 (no)

---

tested on: M14 melanoma; assay: NCI tumour cell line growth inhibition, 48 h
ASSAY_READOUT: TGI

These recorded examples may help you get a feel for the data.
- SC1CCCN(Cc2ccccc2)C1 (configuration not stated): 36.9 µM
- CNc1nnc(CNc2ccc(-c3nnc(NC)n3N)cc2)n1N: > 100 µM
- Nc1ncnc2c1ncn2[C@H]1CC[C@@H](NO)C1: > 100 µM
- O=c1c2c3c(sc2nc(N/N=C/c2ccc(Br)cc2)n1Cc1ccccc1)CCCC3: > 100 µM
- O=C(CCC(C(=O)c1ccccc1)c1ccccc1)c1ccccc1 (configuration not stated): > 100 µM

[Q] Which TGI is listed for CCOC(=O)C1=CC(C)(C(=O)OCC)Nc2c(nc(OC)[nH]c2=O)N1 (configuration not stated) ?
[A] > 10 µM

[Q] Next molecule up: COc1ccc2c(ccc3c(COC(=O)NC(C)C)c(COC(=O)NC(C)C)n(C)c32)c1
[A] 22.1 µM

[Q] Next molecule up: O=C1CC(O)(c2ccccc2)C(c2ccccc2)=C1c1ccccc1 (configuration not stated)
[A] > 100 µM

[Q] Next molecule up: CC[C@@H]1C[C@H]2CC3c4[nH]c5ccc(O)cc5c4CCN(C2)C31
[A] > 100 µM

[Q] Next molecule up: O=c1c2ccccc2c2ccccc2c(=O)n1Cc1ccc2c(c1)OCO2
[A] > 100 µM

[Q] Next molecule up: O=C(O)[C@@H]1NC[C@H]2C(Br)=NO[C@H]21
[A] > 100 µM

[Q] Next molecule up: C=CCSSCC=C
[A] > 100 µM

---

tested on: MCF7 breast; assay: NCI tumour cell line growth inhibition, 48 h
Here, each record is paired with measured TGI data.

[Q] // lookup TGI | system=MCF7 breast | key= O=C(/C=C/c1ccccc1)N1CCCCC1
[A] > 100 µM

---

system: SF-539 CNS; assay: NCI tumour cell line growth inhibition, 48 h
Assign Yes to entries whose TGI meets or exceeds 4 µM; assign No to the rest.

Answered examples (3):
• CN(CC(=O)O)c1ncc2c(n1)-c1ccccc1OC2 = Yes
• COC1O[C@H]2[C@H]3[C@@H]1[C@@H](OS(=O)(=O)c1ccc(C)cc1)C(=O)N3C[C@H]2O (stereo partly drawn) = Yes
• CCCCCCCCCCCCCCCCOCC(CCl)OP(=O)(O)OP(=O)(O)OCC1OC(n2ccc(N)nc2=O)C(O)C1O (stereo not drawn) = Yes

[Q] Kindly determine if TGI recorded for C[Si](C)(OCCS(=O)(=O)O)OC(=C1S(=O)(=O)OCCOS1(=O)=O)c1cccc2ccccc12 is above or exactly 4 µM.
[A] Yes

[Q] Next compound up: CC1OC(OC2C(CO)OC(O[C@H]3CC[C@@]4(C)C(=CC[C@H]5[C@@H]6C[C@@H]7O[C@]8(CC[C@@H](C)CN8)[C@@H](C)[C@@H]7[C@@]6(C)CC[C@@H]54)C3)C(O)C2O)C(O)C(O)C1O (stereo partly drawn)
[A] Yes

[Q] Next compound up: CC(O)C1(CNc2cc(Cl)nc(N)n2)CC(CCc2ccccc2)C1 (stereo not drawn)
[A] Yes

[Q] Next compound up: O=C(c1cc2c(c3ccccc13)NCCN=C2C(F)(F)F)C(F)(F)F
[A] Yes

[Q] Next compound up: O=C1c2ccccc2C(=O)N1C/C=C/CO
[A] Yes

[Q] Next compound up: CC1=C([Te]c2ccc(O)cc2)C(=O)c2ccccc2C1=O
[A] Yes

[Q] Next compound up: CC(=O)O[C@H]1CCC2[C@@H]3CCC4Cc5nc6c(nc5C[C@]4(C)C3CC[C@@]21C)CC1CC[C@@H]2C(CC[C@@]3(C)C2CC[C@@H]3C(C)CCCC(C)C)[C@@]1(C)C6 (stereo partly drawn)
[A] Yes

[Q] Next compound up: C=C1C(=O)O[C@@H]2C1C[C@@H](O)C(=C)CC/C=C(\C)CCC[C@H](C)[C@H]2OC(C)=O (stereo partly drawn)
[A] Yes

[Q] Next compound up: C=C(C)[C@@H]1CC[C@]2(CO)CC[C@]3(C)[C@H](CC[C@@H]4[C@@]5(C)CCC(NCCc6ccc(O)cc6)C(C)(C)[C@@H]5CC[C@]43C)[C@@H]12 (stereo partly drawn)
[A] No

[Q] Next compound up: COc1cc(-c2nn(-c3cccc(NC(=O)c4ccc(N5CCOCC5)c(C(F)(F)F)c4)c3)cc2-c2ccncc2)ccc1Cl
[A] No

[Q] Next compound up: CN(C)Cc1cc(C=O)cc(CN(C)C)c1O
[A] Yes

[Q] Next compound up: C=CN(C)S(C)(=O)=O
[A] Yes

[Q] Next compound up: O[C@@H]1C[C@H]2N3CC[C@@]2(c2cc4c(cc2C3)OCO4)[C@H]2O[C@@H]12
[A] No

[Q] Next compound up: CC(=O)OCCOc1cc2c([nH]c3ccccc32)c(C)c2cccc1-2
[A] No

[Q] Next compound up: CCCCCCCCCCCCCCCCOP(=O)(O)OP(=O)(O)OCC1OC(n2ccc(N)nc2=O)C(O)C1O (stereo not drawn)
[A] Yes

---

tested on: SW-620 colon; assay: NCI tumour cell line growth inhibition, 48 h
ASSAY_READOUT: TGI

* CCc1ccc2c(c1)N(CCO)C1=C(C(=O)OC1)C2c1cccc(Cl)c1 (configuration not stated) | 21.7 µM
* C=CCNS(=O)(=O)c1ncnc2nc[nH]c12 | > 100 µM
* O=S(O)CCCSSc1ccccc1 | > 100 µM
* CCOC(=O)C(C)(C)C(O)C(C)C (configuration not stated) | > 100 µM

Okay, now this compound:
[Q] // lookup TGI | system=SW-620 colon | key= O=c1[nH]c(-n2[nH]c3c(c2=O)CCCC3)nc(O)c1-c1ccccc1
[A] > 100 µM
